The origin of these recorded values is patent US7741493B2.

# Assayed System: P2X7 (Homo sapiens, UniProt Q99572)
# Sequence (Q99572 1-595): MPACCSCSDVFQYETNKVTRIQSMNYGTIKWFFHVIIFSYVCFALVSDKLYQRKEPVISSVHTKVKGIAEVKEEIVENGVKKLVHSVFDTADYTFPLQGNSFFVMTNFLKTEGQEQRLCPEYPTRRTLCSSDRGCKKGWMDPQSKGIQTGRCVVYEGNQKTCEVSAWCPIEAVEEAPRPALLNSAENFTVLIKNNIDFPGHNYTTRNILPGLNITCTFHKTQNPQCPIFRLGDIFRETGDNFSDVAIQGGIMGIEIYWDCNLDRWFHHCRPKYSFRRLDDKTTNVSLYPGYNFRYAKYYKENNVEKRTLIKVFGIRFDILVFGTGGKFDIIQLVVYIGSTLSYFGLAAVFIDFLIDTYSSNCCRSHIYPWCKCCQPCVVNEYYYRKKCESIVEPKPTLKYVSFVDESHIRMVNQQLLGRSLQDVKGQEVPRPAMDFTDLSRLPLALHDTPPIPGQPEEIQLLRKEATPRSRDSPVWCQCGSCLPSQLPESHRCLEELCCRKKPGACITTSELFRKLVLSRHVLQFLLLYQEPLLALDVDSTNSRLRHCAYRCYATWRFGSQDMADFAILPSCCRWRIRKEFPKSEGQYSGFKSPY
# Assay Method Text: YO-PRO-1 dye uptake assay in U373 cells stably expressing P2X7
# Type: cell-based
# Design: The complete open reading frame of human P2X7 was amplified from Incyte clone 148057; expressed in transfected cells
# Assay Setup: dye uptake through P2X7, U373 cells, 300 μM BzATP, 5 μM YO-PRO-1, test compounds 30 nM to 3 μM; read-out: IC50
Counter-ions that a name gives are not always drawn.
Cut-off 300 nM on IC50: below means True, at or above means False.

Solved cases below.
C[C@@]1(c2cccc(F)c2)N=C(Cc2ccc(F)cc2)N[C@@H]1c1cccc(F)c1 (relative stereo) [trifluoroacetate] : True
Fc1ccc(CNC2=N[C@@H](c3ccc(F)cc3)[C@@H](c3ccc(F)cc3)N2)cc1 : False
c1ccc([C@H]2NC(COC3CCCCC3)=N[C@H]2c2ccccc2)cc1 [trifluoroacetate] : False

**Q:** Determine whether this compound shows IC50 lower than 300 nM (ties excluded): Fc1cccc(CNC2=N[C@@H](c3ccccc3Cl)[C@@H](c3ccccc3Cl)N2)c1 [hydrochloride]
**A:** False

**Q:** Determine whether this compound shows IC50 lower than 300 nM (ties excluded): Fc1ccc(OCC2=N[C@@H](c3ccccc3)[C@@H](c3ccccc3)N2)cc1 [trifluoroacetate]
**A:** False

**Q:** Determine whether this compound shows IC50 lower than 300 nM (ties excluded): Cc1cccc(COCC2=N[C@@H](c3ccccc3)[C@@H](c3ccccc3)N2)c1 [hydrochloride]
**A:** False

**Q:** Determine whether this compound shows IC50 lower than 300 nM (ties excluded): Cc1cccc([C@H]2NC(NCc3ccc(F)c(F)c3)=N[C@H]2c2cccc(C)c2)c1 [hydrochloride]
**A:** True

**Q:** Determine whether this compound shows IC50 lower than 300 nM (ties excluded): COC(C1=N[C@@H](c2ccccc2)[C@@H](c2ccccc2)N1)c1ccccc1 (some centres unmarked)
**A:** True

----------
# Assayed System: P2X7 (Homo sapiens, UniProt Q99572)
# Assay Method Text: YO-PRO-1 dye uptake assay in U373 cells stably expressing P2X7
# Format: cell-based
# Parameters: The complete open reading frame of human P2X7 was amplified from Incyte clone 148057; expressed in transfected cells
# Assay Setup: dye uptake through P2X7, U373 cells, 300 μM BzATP, 5 μM YO-PRO-1, test compounds 30 nM to 3 μM; read-out: IC50
Counter-ions that a name gives are not always drawn.
Okay, here is how we bin by IC50: bottom end (below 200 nM), midrange (200 nM to below 300 nM), top end (300 nM or more)

Fc1ccc(CNC2=N[C@@H](c3ccccc3)[C@@H](c3ccccc3)N2)cc1 [hydrochloride] : bottom end
COc1cccc(CNC2=N[C@@H](c3ccccc3)[C@@H](c3ccccc3)N2)c1 : top end

**Q:** For C[C@@]1(c2ccc(F)cc2)N=C(NCc2ccc(F)cc2)N[C@@H]1c1ccc(F)cc1 , which IC50 bin applies?
**A:** bottom end

**Q:** For c1ccc([C@H]2NC(C3(c4ccccc4)CC3)=N[C@H]2c2ccccc2)cc1 [trifluoroacetate] , which IC50 bin applies?
**A:** top end

**Q:** For Fc1cccc(CC2=N[C@@H](c3ccccc3)[C@@H](c3ccccc3)N2)c1F [trifluoroacetate] , which IC50 bin applies?
**A:** top end
